Measured recombinant barcode read abundance (log10), listed per entry for reference.
assay overview: recombinant barcode read abundance after kanamycin selection (control-corrected) (log10(CPM+1)); higher = more efficient recombination; sequences stand for … in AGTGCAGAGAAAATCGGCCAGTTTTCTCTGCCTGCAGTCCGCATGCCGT…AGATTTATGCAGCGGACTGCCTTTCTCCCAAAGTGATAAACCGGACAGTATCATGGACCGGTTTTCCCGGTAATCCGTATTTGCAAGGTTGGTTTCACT; site = the 11-nt target;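 note: IS621 recombinase and bridge RNA in Escherichia coli cells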
// return just the number, without any unit appended

Some sequences with known recombinant barcode read abundance (log10) results, for comparison:
[[record]]
sequence_chain = "GCCCTATCTTGGGTTCTAACCTGTTGCCT (site GCCCAATCTAG)"
reported_result = 0.0981

[[record]]
sequence_chain = "GTGATCCCTTGGGTTCTAACCTGTTGCCT (site GAGATCCCTAG)"
reported_result = 0.585

[[record]]
sequence_chain = "CAGGCCACTTGGGTTCTAACCTGTTGCCT (site CCGGCCACTAG)"
reported_result = 0.0473


Query block: Look up recombinant barcode read abundance (log10): GATTCTCCTTGGGTTCTAACCTGTTGCAT (site GATTCTCCTAC)
Result block: 0.143

Query block: Next: TACGACTCTTGGGTTCTAACCTGTTGCTT (site TACGACTCTAA)
Result block: 1.73

----------
assay overview: recombinant barcode read abundance after kanamycin selection (control-corrected) (log10(CPM+1)); higher = more efficient recombination; sequences stand for … in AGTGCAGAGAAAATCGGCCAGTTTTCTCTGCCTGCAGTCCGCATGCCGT…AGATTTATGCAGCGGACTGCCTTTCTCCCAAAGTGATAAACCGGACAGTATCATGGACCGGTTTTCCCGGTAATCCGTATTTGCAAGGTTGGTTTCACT; site = the 11-nt target
Rule: recombinant barcode read abundance (log10) of 0.4 or more gives condition met; anything lower gives condition not met.

[[record]]
sequence_chain = "CTTAGGACTTGGGTTCTAACCTGTTGCCG (site CTTAGGACTTG)"
label_class = "condition not met"

[[record]]
sequence_chain = "AGGGGTCCTTGGGTTCTAACCTGTTGCAT (site TGGGATCCTAT)"
label_class = "condition met"

[[record]]
sequence_chain = "AGGCTGCCTTGGGTTCTAACCTGTTGCCT (site AGGCTGCCTAG)"
label_class = "condition met"

[[record]]
sequence_chain = "ATCGTACCTTGGGTTCTAACCTGTTGCTA (site CAAAAGGCTAG)"
label_class = "condition met"

[[record]]
sequence_chain = "GTCACTACTTGGGTTCTAACCTGTTGCAT (site GTCACTACTAT)"
label_class = "condition not met"


Query block: For this sequence, is measured recombinant barcode read abundance (log10) 0.4 or higher? CAGTGGCCTTGGGTTCTAACCTGTTGCCT (site CAGTGGCCTAG)
Result block: condition not met

Query block: Next: AATGTATCTTGGGTTCTAACCTGTTGCCT (site AATGTATCTAG)
Result block: condition met

Query block: Next: TCGGTTCCTTGGGTTCTAACCTGTTGCCT (site TAGGTTCCTAG)
Result block: condition met

Query block: Next: TGGTATACTTGGGTTCTAACCTGTTGCCT (site TGGTATGCTAG)
Result block: condition not met

Query block: Next: ATAAATGCTTGGGTTCTAACCTGTTGCCT (site ATAAATGCTAG)
Result block: condition met

Query block: Next: ACGATCGCTTGGGTTCTAACCTGTTGCCT (site ACGAGCGCTAG)
Result block: condition not met

Query block: Next: GTCATACCTTGGGTTCTAACCTGTTGCCT (site GTCTTACCTAG)
Result block: condition not met

Query block: Next: TCGAGGCCTTGGGTTCTAACCTGTTGCTA (site TCGAGGCCTTA)
Result block: condition not met
